Data credit: PubChem BioAssay AID1259408

- Tested on: GENE-TOX genotoxicity assays, various organisms and cells
- protocol notes: GENE-TOX mutagenicity studies
- condition description: Species/Cell Type: Saccharomyces cerevisiae; Assay Type: Mitotic recombination or gene conversion; Assay Code: YEH-; Evaluation Type: Evaluation A (Pre-1980)
The source made the active and inactive calls. How the calls were made is not given here.
parameter measured: mutagenic call

Use the examples below as a reference point.
Which mutagenic call reading was recorded for the compound c1ccc(-c2ccccc2)cc1 ?
inactive; negative

Which mutagenic call reading was recorded for the compound Cc1ccc(N)cc1 ?
inactive; negative

Which mutagenic call reading was recorded for the compound ClC(Cl)Br ?
inactive; negative

Which mutagenic call reading was recorded for the compound CC1=C(O)C(=O)C(C2=C(O)C(=O)C(C)=C(O)C2=O)=C(O)C1=O ?
inactive; negative

Which mutagenic call reading was recorded for the compound ClC(Cl)(Cl)C(Cl)(Cl)Cl ?
inactive; negative

Which mutagenic call reading was recorded for the compound O=C(O)COc1ccc(Cl)cc1Cl ?
inactive; negative

Which mutagenic call reading was recorded for the compound CCOP(=S)(OCC)SCCSCC ?
inactive; negative

Which mutagenic call reading was recorded for the compound Nc1ccc(N=Nc2ccccc2)cc1 ?
inactive; negative

Provide reported mutagenic call for each item, in the same order as listed.
1. Nc1ncn[nH]1
2. CC1=C2C(=CO[C@H](C)[C@H]2C)C(=O)C(C(=O)O)=C1O
3. COC1=CC(=O)C[C@@H](C)[C@]12Oc1c(Cl)c(OC)cc(OC)c1C2=O
4. ClC1=C(Cl)[C@]2(Cl)[C@@H]3[C@@H]4C[C@@H]([C@H]5O[C@@H]45)[C@@H]3[C@@]1(Cl)C2(Cl)Cl

inactive; negative
inactive; negative
inactive; negative
inactive; negative

====

- Tested on: GENE-TOX genotoxicity assays, various organisms and cells
- protocol notes: GENE-TOX mutagenicity studies
- condition description: Species/Cell Type: Chinese hamster lung (V79) cells; Assay Type: Forward gene mutation at the HPRT or ouabain locus; Assay Code: V79+; Evaluation Type: Evaluation A (Pre-1980)
Calls of active or inactive are those of the source. How the calls were made is not given here.
parameter measured: mutagenic call

Use the examples below as a reference point.
Which mutagenic call reading was recorded for the molecule Cc1c2c(c(C)c3c1ccc1ccccc13)[C@@H]1OC1[C@@H](O)[C@@H]2O (stereo partly specified) ?
active; positive

Which mutagenic call reading was recorded for the molecule c1ccc2c3c4c(ccc5cccc(c54)[C@H]4O[C@@H]34)cc2c1 ?
active; positive

Which mutagenic call reading was recorded for the molecule O[C@@H]1[C@@H]2O[C@@H]2c2cc3c(ccc4ccccc43)cc2[C@H]1O ?
active; positive

Which mutagenic call reading was recorded for the molecule Cc1ccc2cc3c4c(ccc3c3c2c1CC3)C(O)C(O)C=C4 (stereo unspecified) ?
active; positive

Which mutagenic call reading was recorded for the molecule CC(=O)OC/N=[N+](/C)[O-] ?
active; positive

Which mutagenic call reading was recorded for the molecule c1ccc2cc3c4c(ccc3cc2c1)CCC1OC41 (stereo unspecified) ?
active; positive

Which mutagenic call reading was recorded for the molecule NC(=O)/C(=C\c1ccc([N+](=O)[O-])o1)c1ccco1 ?
active; positive

Which mutagenic call reading was recorded for the molecule Cc1c2c(cc3c1ccc1ccccc13)C=C[C@@H](O)[C@@H]2O ?
active; positive

Which mutagenic call reading was recorded for the molecule O=c1[nH]c(=O)n([C@H]2C[C@H](O)[C@@H](CO)O2)cc1Br ?
active; positive

Which mutagenic call reading was recorded for the molecule ClC(Cl)=C(c1ccc(Cl)cc1)c1ccc(Cl)cc1 ?
active; positive

More entries:
Which mutagenic call reading was recorded for the molecule Cc1ccc2cc3c4c(ccc3c3c2c1CC3)C=C[C@H](O)[C@H]4O ?
active; positive
